# TARGET_UNDER_TEST: HLA-B*15:01
# PROTOCOL_DETAILS: IEDB peptide-MHC binding, purified MHC/direct/fluorescence; filed as Kd, often an IC50 or EC50 that approximates it; bounds were set here for any values at or beyond the usual limits of such assays
# CONDITIONS_USED: source organism: Influenza A virus (A/Hong Kong/507/97(H5N1))
pKd: −log10 of the molar value.
MEASURED_ATTRIBUTE: pKd

LAKSVFNSL : ≤ 4.70

----------
# TARGET_UNDER_TEST: HLA-B*27:03
# PROTOCOL_DETAILS: IEDB peptide-MHC binding, purified MHC/competitive/fluorescence; filed as Kd, often an IC50 or EC50 that approximates it; bounds were set here for any values at or beyond the usual limits of such assays
# CONDITIONS_USED: source organism: Homo sapiens
MEASURED_ATTRIBUTE: Kd

VSDFRKEFY : ≥ 20 µM
VLIRRCHYL : ≥ 20 µM

----------
# TARGET_UNDER_TEST: HLA-B*27:05
# PROTOCOL_DETAILS: IEDB peptide-MHC binding, purified MHC/direct/fluorescence; filed as Kd, often an IC50 or EC50 that approximates it; bounds were set here for any values at or beyond the usual limits of such assays
# CONDITIONS_USED: source organism: Yellow fever virus strain Ghana/Asibi/1927
MEASURED_ATTRIBUTE: Kd

AIHPFALLL : ≥ 20 µM

----------
# TARGET_UNDER_TEST: HLA-A*02:19
# PROTOCOL_DETAILS: IEDB peptide-MHC binding, purified MHC/competitive/fluorescence; filed as Kd, often an IC50 or EC50 that approximates it; bounds were set here for any values at or beyond the usual limits of such assays
# CONDITIONS_USED: source organism: Entamoeba histolytica HM-1:IMSS
pKd: −log10 of the molar value.
MEASURED_ATTRIBUTE: pKd

YLHIHPFKI : 7.17

----------
# TARGET_UNDER_TEST: HLA-A*01:01
# PROTOCOL_DETAILS: IEDB peptide-MHC binding, purified MHC/competitive/radioactivity; filed as Kd, often an IC50 or EC50 that approximates it; bounds were set here for any values at or beyond the usual limits of such assays
# CONDITIONS_USED: source organism: Mammarenavirus machupoense
MEASURED_ATTRIBUTE: Kd (µM)

LITEQFLCY : 0.0647
CMLNNSFYY : 1.78

----------
# TARGET_UNDER_TEST: HLA-B*54:01
# PROTOCOL_DETAILS: IEDB peptide-MHC binding, purified MHC/competitive/radioactivity; filed as Kd, often an IC50 or EC50 that approximates it; bounds were set here for any values at or beyond the usual limits of such assays
# CONDITIONS_USED: source organism: Lymphocytic choriomeningitis virus (strain Armstrong)
pKd: −log10 of the molar value.
MEASURED_ATTRIBUTE: pKd

MPSEDGAEAL : 5.55

----------
# TARGET_UNDER_TEST: HLA-B*08:02
# PROTOCOL_DETAILS: IEDB peptide-MHC binding, purified MHC/direct/fluorescence; filed as Kd, often an IC50 or EC50 that approximates it; bounds were set here for any values at or beyond the usual limits of such assays
# CONDITIONS_USED: source organism: Yellow fever virus
MEASURED_ATTRIBUTE: Kd

AIHPFALLL : ≥ 20 µM

----------
# TARGET_UNDER_TEST: HLA-A*02:12
# PROTOCOL_DETAILS: IEDB peptide-MHC binding, purified MHC/competitive/fluorescence; filed as Kd, often an IC50 or EC50 that approximates it; bounds were set here for any values at or beyond the usual limits of such assays
# CONDITIONS_USED: source organism: Bacillus anthracis str. 'Ames Ancestor'
pKd: −log10 of the molar value.
MEASURED_ATTRIBUTE: pKd

MTQNISNDK : ≤ 4.70

----------
# TARGET_UNDER_TEST: HLA-A*03:01
# PROTOCOL_DETAILS: IEDB peptide-MHC binding, purified MHC/direct/fluorescence; filed as Kd, often an IC50 or EC50 that approximates it; bounds were set here for any values at or beyond the usual limits of such assays
# CONDITIONS_USED: source organism: Haemophilus influenzae
pKd: −log10 of the molar value.
MEASURED_ATTRIBUTE: pKd

RLFFIDWEY : 5.97

----------
# TARGET_UNDER_TEST: HLA-B*15:01
# PROTOCOL_DETAILS: IEDB peptide-MHC binding, purified MHC/direct/fluorescence; filed as Kd, often an IC50 or EC50 that approximates it; bounds were set here for any values at or beyond the usual limits of such assays
# CONDITIONS_USED: source organism: Haemophilus influenzae
pKd: −log10 of the molar value.
MEASURED_ATTRIBUTE: pKd

RLFFIDWEY : 6.53

----------
# TARGET_UNDER_TEST: HLA-A*02:19
# PROTOCOL_DETAILS: IEDB peptide-MHC binding, purified MHC/direct/fluorescence; filed as Kd, often an IC50 or EC50 that approximates it; bounds were set here for any values at or beyond the usual limits of such assays
# CONDITIONS_USED: source organism: Brucella suis ATCC 23445
pKd: −log10 of the molar value.
MEASURED_ATTRIBUTE: pKd

LSDDSGLMV : ≤ 4.70

----------
# TARGET_UNDER_TEST: HLA-A*24:02
# PROTOCOL_DETAILS: IEDB peptide-MHC binding, purified MHC/direct/fluorescence; filed as Kd, often an IC50 or EC50 that approximates it; bounds were set here for any values at or beyond the usual limits of such assays
# CONDITIONS_USED: source organism: Brucella abortus
pKd: −log10 of the molar value.
MEASURED_ATTRIBUTE: pKd

LTDAFHGYH : ≤ 4.70

----------
# TARGET_UNDER_TEST: HLA-B*73:01
# PROTOCOL_DETAILS: IEDB peptide-MHC binding, purified MHC/direct/fluorescence; filed as Kd, often an IC50 or EC50 that approximates it; bounds were set here for any values at or beyond the usual limits of such assays
# CONDITIONS_USED: source organism: Campylobacter jejuni RM1221
pKd: −log10 of the molar value.
MEASURED_ATTRIBUTE: pKd

AKYEICLEK : ≤ 4.70

----------
# TARGET_UNDER_TEST: HLA-A*24:03
# PROTOCOL_DETAILS: IEDB peptide-MHC binding, purified MHC/competitive/fluorescence; filed as Kd, often an IC50 or EC50 that approximates it; bounds were set here for any values at or beyond the usual limits of such assays
# CONDITIONS_USED: source organism: Encephalitozoon cuniculi GB-M1
MEASURED_ATTRIBUTE: Kd

NLFEIEWEE : ≥ 20 µM

----------
# Lookup of reported Kd keyed by entry
# TARGET_UNDER_TEST: HLA-B*07:02
# PROTOCOL_DETAILS: IEDB peptide-MHC binding, purified MHC/direct/fluorescence; filed as Kd, often an IC50 or EC50 that approximates it; bounds were set here for any values at or beyond the usual limits of such assays
# CONDITIONS_USED: source organism: Campylobacter jejuni RM1221
MEASURED_ATTRIBUTE: Kd

VQKVNPAPK : ≥ 20 µM
AKYEICLEK : ≥ 20 µM

----------
# TARGET_UNDER_TEST: HLA-B*07:02
# PROTOCOL_DETAILS: IEDB peptide-MHC binding, purified MHC/competitive/radioactivity; filed as Kd, often an IC50 or EC50 that approximates it; bounds were set here for any values at or beyond the usual limits of such assays
# CONDITIONS_USED: source organism: Lymphocytic choriomeningitis virus (strain Armstrong)
MEASURED_ATTRIBUTE: Kd (nM)

MPSEDGAEAL : 1360

----------
# TARGET_UNDER_TEST: HLA-A*11:01
# PROTOCOL_DETAILS: IEDB peptide-MHC binding, purified MHC/direct/fluorescence; filed as Kd, often an IC50 or EC50 that approximates it; bounds were set here for any values at or beyond the usual limits of such assays
# CONDITIONS_USED: source organism: Vibrio cholerae
# maps each entry to its Kd
MEASURED_ATTRIBUTE: Kd

ALYWALMES : ≥ 20 µM
WAGIWGGKL : ≥ 20 µM

----------
# TARGET_UNDER_TEST: HLA-A*24:02
# PROTOCOL_DETAILS: IEDB peptide-MHC binding, purified MHC/competitive/radioactivity; filed as Kd, often an IC50 or EC50 that approximates it; bounds were set here for any values at or beyond the usual limits of such assays
# CONDITIONS_USED: source organism: Mammarenavirus brazilense
pKd: −log10 of the molar value.
Overview of recorded pKd for various sequences
MEASURED_ATTRIBUTE: pKd

LYALITEQF : 7.77
LYIAENGEL : 5.77

Data origin: the Immune Epitope Database (IEDB)
